# Target System: Cocaine esterase (Homo sapiens)
# Sequence (O00748 whole entry): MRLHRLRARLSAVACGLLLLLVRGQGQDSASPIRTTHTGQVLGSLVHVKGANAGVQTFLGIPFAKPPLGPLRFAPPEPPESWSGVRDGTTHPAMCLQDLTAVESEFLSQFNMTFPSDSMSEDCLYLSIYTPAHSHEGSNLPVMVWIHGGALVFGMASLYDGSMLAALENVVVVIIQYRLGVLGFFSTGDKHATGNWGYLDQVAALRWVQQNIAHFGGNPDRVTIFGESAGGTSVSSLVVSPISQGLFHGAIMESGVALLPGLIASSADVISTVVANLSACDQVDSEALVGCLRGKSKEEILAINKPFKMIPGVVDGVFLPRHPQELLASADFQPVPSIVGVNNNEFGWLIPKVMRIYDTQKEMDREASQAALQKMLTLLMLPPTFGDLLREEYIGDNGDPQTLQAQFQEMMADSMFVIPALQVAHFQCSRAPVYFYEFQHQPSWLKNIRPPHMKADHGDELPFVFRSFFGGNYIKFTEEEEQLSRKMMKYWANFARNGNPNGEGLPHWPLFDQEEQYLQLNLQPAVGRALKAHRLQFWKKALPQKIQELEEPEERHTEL
pIC50: −log10 of the molar value.
Observable: pIC50

>  <Molecular String>
O=C(NCc1ccccc1)O[C@H]1CO[C@H]2[C@@H]1OC[C@H]2OC(=O)c1ccccc1O

>  <Target System>
Cocaine esterase (Homo sapiens)

>  <Observable>
pIC50

>  <Experimental Value>
5.47

$$$$
